# study system: DLG5_1, Q8TDM6
# Sequence (Q8TDM6 617-713): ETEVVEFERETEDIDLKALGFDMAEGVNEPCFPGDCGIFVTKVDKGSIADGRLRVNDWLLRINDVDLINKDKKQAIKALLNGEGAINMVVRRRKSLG
# test summary: holdup assay
# Set-up: key: below the threshold = too weak to quantify, mostly under pKd 3.1 to 4
# test conditions: plain residues with an end cap or a label only (N-terminal biotin on a linker: ado-ado)

[
  {
    "binder": "AHGSTRDQSI [KCNB1, Q14721]",
    "pKd": 4.06
  },
  {
    "binder": "QLGSPTADLA [SIPA1, Q96FS4]",
    "pKd": "below the threshold"
  },
  {
    "binder": "RSPVATATSC [DUSP5, Q16690]",
    "pKd": "below the threshold"
  },
  {
    "binder": "DLLGGGSDSI [TNRC6B, Q9UPQ9]",
    "pKd": "below the threshold"
  }
]
